- Tested on: BVDV NADL virus
- Test summary: CPE-based antiviral assay, BVDV NADL in MDBK cells (MTS/PMS)
- Condition: Bovine viral diarrhea virus isolates and strains, MDBK, 72 h
Quantity name: log10 of EC50 (log10 of the value in µM)

| Smiles text | log10 of EC50 |
| --- | --- |
| COc1ccc2nc(NC(=O)c3cc(-c4ccco4)nc4ccc(OC(F)(F)F)cc34)sc2c1 | 2.00 |
| Cc1cccc2sc(NC(=O)c3cc(-c4ccncc4)nc4ccccc34)nc12 | -0.70 |
| Cc1ccc(-c2cc(C(=O)Nc3ccn(-c4ccccc4)n3)c3ccccc3n2)o1 | 1.18 |
| Cc1noc(C)c1NC(=O)c1cc(-c2ccccc2)nc2ccccc12 | 1.67 |
| Cc1ccc(-c2cc(C(=O)Nc3ccn(-c4ccccc4)n3)c3ccccc3n2)cc1 | -1.00 |
